# protocol: small-molecule microarray binders of probe aDKK1, primary screen, biochemical, biotinylated probe, 635/667 nm fluorescence (AID 1099);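 further: score merges 667nm spot fluorescence with signal to noise across triplicate slides; reference of the scale not given here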
# conditions.used: higher = more signal
Rule: composite z-score under 0.4 gives F, otherwise T.

- molecule: "O=C1C2C=CC(C(O)c3ccccc3)N(n3cnnc3)C2C(=O)N1Cc1ccccc1 (configuration not stated)"
  class.name: "T"
- molecule: "O=C1O[C@@H](c2ccccc2)[C@@H](c2ccccc2)N2[C@@H](c3ccc(OCCO)cc3)[C@]3(C(=O)Nc4ccc(C#CCCO)cc43)[C@@H](C(=O)N3CCN(c4ncccn4)CC3)[C@H]12"
  class.name: "F"
- molecule: "O=C(NCc1ccccc1)[C@@]1(Cc2ccccc2)COC(c2ccc(OCCCO)cc2)=N1"
  class.name: "T"
- molecule: "COCCOC(=O)N1C(=O)[C@@]2(c3cc(C#CCNC(N)=O)ccc31)[C@H](C(=O)N1CCCCCCC1)[C@H]1C(=O)O[C@H](c3ccccc3)[C@H](c3ccccc3)N1[C@@H]2c1ccccc1OCCO"
  class.name: "T"
- molecule: "CO[C@@H]1COC(=O)[C@@H]2CCCN2C(=O)CC=C[C@@H](C)[C@H](OC)COC(=O)[C@@H]2CCCN2C(=O)CC=C[C@H]1C"
  class.name: "F"
- molecule: "CN1CCC(CCCO)=CC1C1CC1 (configuration not stated)"
  class.name: "F"
- molecule: "CN(C)c1ccc(C(O)C2C=CC3C(=O)NC(=O)C3N2Nc2ccc(Cl)cc2Cl)cc1 (configuration not stated)"
  class.name: "T"
- molecule: "C=CC[C@]1(C(=O)O)N=C(c2ccc(OCCCO)cc2)O[C@H]1c1ccccc1"
  class.name: "T"

Lookup: Exam item: decide whether the reported composite z-score for C=CCC(OC(C)=O)[C@@H]1[C@@H](N(Cc2ccc(-c3ccccc3)cc2)C(=O)c2ccc(C)cc2)c2cc(OCCCO)ccc2N1C(=O)c1ccc(-c2ccccc2)cc1 (some centres not stated) is at least 0.4.
Found: T

Lookup: Say whether CO[C@H]1COC(=O)CC=C[C@H](C)[C@@H](OC)COC(=O)[C@H](Cc2ccccc2)NC(=O)CC=C[C@@H]1C shows composite z-score of 0.4 or more.
Found: F

Lookup: Reported composite z-score reaches at least 0.4 for CC1CC/C=C\[C@H]2OC34C=CCN(Cn5nnc6ccccc65)C(=O)[C@H]3N(C(C)CO)C(=O)[C@@H]4C2C(=O)O1 (some centres not stated) ?
Found: F

Lookup: Please indicate if the recorded composite z-score for C=C(C)[C@@H]1CC=C(C(O)C2C=CC3C(=O)NC(=O)C3N2Nc2ccccn2)CC1 (some centres not stated) meets or exceeds 0.4.
Found: T

Lookup: Could you please find out whether O=C1O[C@@H](c2ccccc2)[C@@H](c2ccccc2)N2[C@@H](c3ccc(O)cc3)[C@]3(C(=O)Nc4ccc(C#CC5(O)CCCCCC5)cc43)[C@@H](C(=O)Nc3nc4ccccc4s3)[C@H]12 has composite z-score that meets 0.4 or exceeds it?
Found: F

Lookup: // inclusive: composite z-score at least 0.4? input: CCCC=C(CCC)[C@@H](NS(=O)(=O)c1ccc(C(F)(F)F)cc1)c1ccc(-c2ccccc2)cc1
Found: T

Lookup: Is composite z-score at least 0.4? Consider CCCC=C(CCC)[C@@H](NS(=O)(=O)c1cccc(C(F)(F)F)c1)c1ccc(C(=O)OC)cc1
Found: T

Lookup: Decide: is the reported value of composite z-score for Cc1ccc(S[C@]2(C(=O)NCCN3CCOCC3)CC(=O)N(C3Cc4ccccc4C3)[C@@H]2c2ccc(CO)cc2I)cc1 equal to or greater than 0.4?
Found: T

Lookup: Record CN1C(=O)C2C=CC(C(O)C3CC=CCC3)N(Nc3ccccc3)C2C1=O (configuration not stated) ; criterion: composite z-score no lower than 0.4. Met?
Found: T

----------
Collected z-score values appear next to each entry.
# system: Luciferin 4-monooxygenase (Photinus pyralis)
# protocol: firefly luciferase enzyme inhibitors, primary screen, biochemical, luminescence, purified enzyme, 2006 set (AID 1141);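 further: cell-free assay with purified firefly luciferase at 100 ng per well in PBS; test concentration not given here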
# conditions.used: SteadyGlo luminescence, 30 min, higher = more signal, called active from +8 up or from −8 down
Please give only the number in your answer, with no unit.

Consider the worked cases shown below.
- compound: "COc1ccc([Si](C)(C)[C@@H]2[C@@H](CCO)O[C@]3(C(=O)N(Cc4ccc(NC(=O)[C@H](C)O)cc4)c4ccccc43)[C@H]2C)cc1"
  z-score: -0.546
- compound: "COCCOC(=O)N1C(=O)[C@@]2(c3cc(C#CCCO)ccc31)[C@H](c1ccc(O)cc1)N1[C@H](c3ccccc3)[C@H](c3ccccc3)OC(=O)[C@H]1[C@@H]2C(=O)Nc1nc2ccccc2s1"
  z-score: 0.0884
- compound: "COCCOC(=O)N1C(=O)[C@@]2(c3cc(C#CCCO)ccc31)[C@H](c1ccc(OCCO)cc1)N1[C@H](c3ccccc3)[C@H](c3ccccc3)OC(=O)[C@H]1[C@@H]2C(=O)NC[C@H](O)c1ccccc1"
  z-score: -0.216
- compound: "CCOC(=O)C[C@H]1[C@H](OC(=O)c2cc3ccccc3oc2=O)[C@@H](NC(=O)c2ccc3ccccc3c2)c2cc(OCCCO)ccc2N1C(=O)c1ccc2ccccc2n1"
  z-score: -0.233

Lookup: Can you look up the measured z-score of COCCOC(=O)N1C(=O)[C@@]2(c3cc(C#CCC(C(=O)OC)C(=O)OC)ccc31)[C@H](C(=O)N1CCN(c3ncccn3)CC1)[C@H]1C(=O)O[C@H](c3ccccc3)[C@H](c3ccccc3)N1[C@@H]2c1ccc(O)cc1 for me?
Found: -1

Lookup: Query (compound): Cc1ccc(S[C@]2(C(=O)O)CC(=O)N(Cc3ccccc3)[C@@H]2c2ccc(CO)cc2)cc1 ; field requested: z-score
Found: -1.32

Lookup: Give the measured z-score of CCN1C(C)=C(C(=O)OC)[C@@H](c2ccccc2)N2C(=O)[C@@]3(C(=O)OC)O[C@@]12[C@@H]1C(=O)N(C)C(=O)[C@@H]13 .
Found: -0.701

Lookup: Report z-score for Cc1ccc(S[C@]2(C(=O)NCCCN(C)C)CC(=O)N(C3CCCCC3)[C@@H]2c2ccc(CO)cc2I)cc1 please.
Found: -1.38

Lookup: # input compound: COCCOC(=O)N1C(=O)[C@@]2(c3cc(C#CC4=CCCCC4)ccc31)[C@H](C(=O)NC[C@H](O)c1ccccc1)[C@H]1C(=O)O[C@H](c3ccccc3)[C@H](c3ccccc3)N1[C@@H]2c1ccc(OCCO)cc1 ; wanted: its z-score
Found: -0.526

Lookup: Which z-score is reported for this compound? Cc1ccc(N2C(=O)c3ccccc3[C@](C)(C(=O)O)[C@@H]2c2ccc(CO)cc2)nc1
Found: -1.46

Lookup: I am curious: what z-score value has been reported for O=C1C2C=CC(C(O)Cc3ccccc3)N(Nc3ccc([N+](=O)[O-])cc3)C2C(=O)N1c1ccccc1 (configuration not stated) ?
Found: 1.36

Lookup: Value lookup for z-score; key = CO[C@H]1O[C@H](CO)[C@@H](OC(=O)Nc2ccc(Oc3ccccc3)cc2)[C@H](OC(=O)Nc2ccccc2-c2ccccc2)[C@H]1OC(=O)Nc1ccccc1-c1ccccc1
Found: -1.02

----------
# protocol: PSAC antagonists in infected red cells, primary screen, cell-based, P. falciparum Indochina, OD700, 18 h (AID 1157)
# conditions.used: P. falciparum Indochina infected erythrocytes, osmotic lysis OD700, 18 h; higher = more signal, called active from +8 up or from −8 down
# maps each entry to its z-score
Could you respond with only the numeric value?

- molecule: "CO[C@H]1COC(=O)[C@@H](C)COC(=O)[C@H](Cc2ccccc2)NC(=O)CC=C[C@H]1C"
  property.name: "z-score"
  reading: -2.15
- molecule: "Cc1ccc(S[C@]2(C(=O)NC3CC3)CC(=O)N(Cc3cc(C(F)(F)F)cc(C(F)(F)F)c3)[C@@H]2c2ccc(CO)cc2)cc1"
  property.name: "z-score"
  reading: -1.95
- molecule: "C=CCC(OC(C)=O)[C@@H]1[C@@H](N(Cc2cccc3ccccc23)C(=O)Cc2ccc(F)cc2)c2cc(OCCCO)ccc2N1C(=O)Cc1ccc2ccccc2c1 (stereo not given in full)"
  property.name: "z-score"
  reading: 0.434
- molecule: "C[C@@H]1CC[C@H]2C(=O)N3[C@@H](CC[C@@H](C)[C@@H]3c3cccc(N4CCOCC4)c3)C(=O)N2[C@H]1c1cccc(Br)c1"
  property.name: "z-score"
  reading: 0.71
- molecule: "O=C1C2C=CC(C(O)C#Cc3ccccc3)N(Nc3ccccc3)C2C(=O)N1c1ccccc1 (stereo not given)"
  property.name: "z-score"
  reading: 1.49
- molecule: "O=C(N1CCCCC1)[C@@]1(CCS(=O)(=O)c2ccccc2)N=C(c2ccc(OCCCO)cc2)O[C@H]1c1ccccc1"
  property.name: "z-score"
  reading: 4.24
- molecule: "COCCOC(=O)N1C(=O)[C@@]2(c3cc(C#CC4=CCCCC4)ccc31)[C@H](c1ccc(O)cc1)N1[C@H](c3ccccc3)[C@H](c3ccccc3)OC(=O)[C@H]1[C@@H]2C(=O)N1CCCCCCC1"
  property.name: "z-score"
  reading: 0.389
- molecule: "CCCC[C@@H]1C[C@H]1[C@@H](NC(=O)c1ccccc1)c1ccccc1C(F)(F)F"
  property.name: "z-score"
  reading: 0.422

Lookup: For the molecule CO[C@H]1COC(=O)[C@@H](Cc2ccccc2)NC(=O)[C@@H](C)COC(=O)CC=C[C@@H]1C , what z-score is on record?
Found: -0.481

Lookup: Find the recorded z-score belonging to CC(C)NC(=O)[C@@]1(Cc2ccccc2I)c2ccccc2C(=O)N(C2CCCCC2)[C@H]1c1ccc(CO)cc1 and report it.
Found: 1.28
